# test: interference with GST/GSH bead binding – biochemical, cherry pick 1, flow cytometry, artefact control for arrestin-AP2 inhibitor project, confirmation (AID 588338);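 also: fluorescein maleimide labelled GST captured on 4 micron glutathione beads; higher means more loss of bead fluorescence from quenching or blocked binding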
# cond: GST-fluorescein binding to GSH beads, fluorescence, counter-screen; at 10 µM
Hit rate of the full screen: of about 1,300 compounds, about 20 (2%) were called active.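 The calls were made as follows: active = inhibition above 50%, about 3 SD of the inhibition seen with non-fluorescent compounds; inactive = the rest.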 Only a sample is shown.
API: response.call in active, inactive

Example entries and their recorded answers appear below.
INSERT INTO results (compound, label_class) VALUES
  ('CCOc1ccc(C(=O)NC2CCN(CC(=O)NCc3cccs3)CC2)cc1', 'inactive'),
  ('Cc1cc(C)cc(Oc2nc3c(C)cccn3c(=O)c2/C=C(\C#N)C(=O)NC2CCS(=O)(=O)C2)c1 (configuration not stated)', 'inactive'),
  ('CC(CN1CCCCC1)OC(=O)c1ccccc1Cl (configuration not stated)', 'inactive'),
  ('Cc1cccc(Nc2ccccc2C(=O)NCc2ccco2)c1C', 'inactive'),
  ('O=c1[nH]c2ccccc2n2c(-c3ccccc3)nnc12', 'inactive');

Challenge: What call does the record list for CC(C)c1nnc(NC(=O)CCC(=O)N2CCN(c3cccc(Cl)c3)CC2)s1 ?
Response given: inactive

Challenge: Tell me the recorded outcome of this test for Cc1ccc(OCCCCc2c(C)n[nH]c2C)cc1 .
Response given: inactive

Challenge: Per the records of this test, what outcome belongs to COc1cccc(-n2c(SCC(=O)c3c[nH]c4ccccc34)nc3ccccc3c2=O)c1 ?
Response given: active

Challenge: Outcome? COC(=O)c1cc(NC(=O)c2nn(C)c(=O)c3ccccc23)cc(C(=O)OC)c1
Response given: inactive

Challenge: Tell me the recorded outcome of this test for Cc1ccc(S(=O)(=O)/N=C(/Nc2ccccn2)c2ccc(Cl)cc2)cc1 .
Response given: inactive

Challenge: Returns: the outcome recorded for CC(NC(=O)c1cc2cc(Cl)ccc2oc1=N)c1ccccc1 (configuration not stated) in this assay.
Response given: inactive

====

inhibition overview
# test: interference with GST/GSH bead binding – biochemical, cherry pick 1, flow cytometry, artefact control for arrestin-AP2 inhibitor project, confirmation (AID 588338);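 also: fluorescein maleimide labelled GST captured on 4 micron glutathione beads; higher means more loss of bead fluorescence from quenching or blocked binding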
# cond: GST-fluorescein binding to GSH beads, fluorescence, counter-screen; at 10 µM; hits give high values
Among all 1,300 compounds or so, about 20 (2%) were called active. Only a sample is shown.
Reply numerically in %, unit not repeated.

Recorded inhibition, per entry:
INSERT INTO measurements (compound, metric_name, recorded_result) VALUES
  ('Cc1ccc(CN2C(=O)CCC2C(=O)NCCCN2CCCCC2C)cc1 (stereo unspecified)', 'inhibition', -11.5),
  ('Cc1ccc(C)c(NC(=S)NNC(=S)Nc2ccc(C(C)C)cc2)c1', 'inhibition', 0.62),
  ('CCCc1ccc(-c2csc(NC(=O)Cc3cccs3)n2)cc1', 'inhibition', -4.6),
  ('Cc1cccc(C)c1NC(=O)C(Cl)C(=O)c1ccccc1 (stereo unspecified)', 'inhibition', -5.59),
  ('O=C(c1ccc(S(=O)(=O)NCc2ccco2)cc1)N1CCN(c2ccccc2)CC1', 'inhibition', 8.86),
  ('CC(Oc1ccccc1)C(=O)NN1Cc2ccccc2C1=N (stereo unspecified)', 'inhibition', -4.56);

Per the records, this compound ( CN(C)c1ccc(NC(=O)c2ccncc2)c2ccccc12 ) has inhibition equal to -4.94

GET /value?item= Cn1c(=O)c2c(nc(N/N=C/c3cccs3)n2Cc2ccc(Br)cc2)n(C)c1=O &field=inhibition returns 0.63

Please fill in: inhibition reported for COc1cc2c(cc1OC)CN(C(=O)c1cc(=O)c3ccccc3o1)CC2 = -0.62

Looking up CCn1c(=O)n(CC)c2cc(N3CCCC3)c(NC(=O)c3ccccc3Br)cc21 , I found its inhibition recorded as -4.23

Looking up Cn1c(=O)c([N+](=O)[O-])c(Oc2ccccc2)c2ccccc21 , I found its inhibition recorded as -0.63

====

Item-by-item account of inhibition
# test: interference with GST/GSH bead binding – biochemical, cherry pick 1, flow cytometry, artefact control for arrestin-AP2 inhibitor project, confirmation (AID 588338);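 also: fluorescein maleimide labelled GST captured on 4 micron glutathione beads; higher means more loss of bead fluorescence from quenching or blocked binding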
# cond: GST-fluorescein binding to GSH beads, fluorescence, counter-screen; at 10 µM; hits give high values
Among all 1,300 compounds or so, about 20 (2%) were called active. A selection follows.
Unit % implied. Number only.

Solved cases below.
INSERT INTO measurements (compound, recorded_result) VALUES
  ('CC(C)(C)c1ccc(C(=O)NCCn2c(N)c(C#N)c3nc4ccccc4nc32)cc1', 1.49),
  ('O=C(C1CCCO1)N1CCN(S(=O)(=O)c2ccc(Br)cc2)CC1 (stereo not given)', -16.4),
  ('COc1ccc(CCNc2ncnc3c2nnn3Cc2ccccc2)cc1', 4.82),
  ('CCOc1ccc(-c2nnc(-c3ccco3)o2)cc1', -7.89),
  ('C/C(=N\Nc1ccc([N+](=O)[O-])cc1)c1ccc(-n2nncc2C(C)(C)C)cc1', 2.54);

Documented inhibition of CCOC(=O)N1CCN(C(=O)CNC(=O)Cc2ccc(Cl)cc2)CC1 : -12.7

Looking up Cc1cccc(NC(=S)NC(=O)c2ccc(Br)o2)c1 , I found its inhibition recorded as -2.99

Measured inhibition, COc1cc2c(cc1NC(=O)COC(=O)/C=C/c1ccccc1)oc1ccccc12 : -10.3

Value of inhibition reported for the compound CCC(=O)Nc1nc2ccccc2n1Cc1ccccc1C is 6.47

Record CC(C)C[C@H](NC(=O)N1CCn2c1nc1ccccc12)C(=O)NC1CC1 , field inhibition: -5.48
